Entries annotated with measured IC50
- Test Target: P2X7 receptor (Homo sapiens (Human))
- Sequence (Q99572 whole entry): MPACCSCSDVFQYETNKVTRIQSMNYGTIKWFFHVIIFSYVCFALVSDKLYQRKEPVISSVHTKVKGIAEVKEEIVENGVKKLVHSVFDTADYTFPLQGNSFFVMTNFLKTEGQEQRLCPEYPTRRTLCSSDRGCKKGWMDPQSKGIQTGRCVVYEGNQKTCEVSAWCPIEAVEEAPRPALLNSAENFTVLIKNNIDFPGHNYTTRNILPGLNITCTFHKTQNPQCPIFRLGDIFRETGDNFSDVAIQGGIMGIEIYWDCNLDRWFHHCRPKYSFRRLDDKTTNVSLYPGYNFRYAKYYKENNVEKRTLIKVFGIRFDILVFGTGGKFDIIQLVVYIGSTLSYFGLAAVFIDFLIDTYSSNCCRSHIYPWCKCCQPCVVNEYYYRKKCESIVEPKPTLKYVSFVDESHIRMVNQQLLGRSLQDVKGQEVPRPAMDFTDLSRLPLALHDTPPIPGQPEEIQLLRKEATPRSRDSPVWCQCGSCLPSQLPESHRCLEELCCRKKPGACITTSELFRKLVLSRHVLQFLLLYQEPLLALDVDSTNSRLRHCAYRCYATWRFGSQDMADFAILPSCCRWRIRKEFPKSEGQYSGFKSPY
- Test Details: YO-PRO-1 Uptake Assay (large pore form, Bz-ATP stimulated)
- Type: cell-based
- Setup Conditions: HEK-293 cells stably transfected with P2X7 receptor; Bz-ATP EC80 (30 μM); 5 μM YO-PRO-1

| Compound | IC50 [nM] |
| --- | --- |
| Cc1ncc(C(CNC(=O)c2c(C)cccc2Cl)N2CCC(F)(F)CC2)s1 (stereo not drawn) | 18 |
| Cc1ncsc1C(CNC(=O)c1c(F)cccc1Cl)N1CCC(F)(F)CC1 (stereo not drawn) | 229 |
| Cc1cccc(C)c1C(=O)NCC(c1cncs1)N1CCC(Oc2ccccc2)CC1 (stereo not drawn) | 44 |
| O=C(NCC(c1cncs1)N1CCC(F)(F)CC1)c1cc(-c2ncc(F)cn2)ccc1Cl (stereo not drawn) | 30 |
| COc1cccc(C(=O)NCC(c2ocnc2C)N2CCC(F)(F)CC2)c1OC (stereo not drawn) | 2090 |
| Cc1cccc(Cl)c1C(=O)NCC(c1cncs1)N1CCc2ccccc2C1 (stereo not drawn) | 197 |
| O=C(NCC(c1cnco1)N1CCOCC1)c1c(F)cccc1Cl (stereo not drawn) | 500 |
| Cc1ncsc1C(CNC(=O)c1cc(-c2ncc(F)cn2)ccc1Cl)N1CCCC(F)(F)C1 (stereo not drawn) | 58 |
| Cc1cccc(C)c1C(=O)NCC(c1scnc1C)N1CCOCC1 (stereo not drawn) | 302 |
| O=C(NCC(c1cnc(C2CCC2)s1)N1CCC(F)(F)CC1)c1cc(-c2ncc(F)cn2)ccc1Cl (stereo not drawn) | 326 |
| CCCc1ncc(C(CNC(=O)c2cc(-c3ncc(F)cn3)ccc2Cl)N2CCC(F)(F)CC2)s1 (stereo not drawn) | 158 |
| O=C(NCC(c1cnc(C2CCC2)s1)N1CCC(F)(F)CC1)c1cccc2ncccc12 (stereo not drawn) | 135 |
| CCCc1ncc(C(CNC(=O)c2c(F)cccc2Cl)N2CCC(F)(F)CC2)s1 (stereo not drawn) | 50 |
| O=C(NCC(c1cscn1)N1CCC(F)(F)CC1)c1c(F)cccc1Cl (stereo not drawn) | 3300 |
| Cc1ncc(C(CNC(=O)c2c(C)cccc2Cl)N2CCc3ccccc3C2)s1 (stereo not drawn) | 996 |
| COc1cccc(C(=O)NCC(c2cncs2)N2CCC(F)(F)CC2)c1OC (stereo not drawn) | 129 |
| O=C(NCC(c1scnc1C(F)(F)F)N1CCC(F)(F)CC1)c1c(F)cccc1Cl (stereo not drawn) | 287 |
| Cc1ncoc1C(CNC(=O)c1cc(-c2ncc(F)cn2)ccc1Cl)N1CCOCC1 (stereo not drawn) | 279 |
